# testDescription: Human GI S9 stability
# conditions: intestinal S9
Each item that follows carries a reported half-life at 2 μM.
endpointName: half-life at 2 μM

recordSmiles: Cn1ccc2c([C@@H](c3cn(C45CC(C4)C5)nn3)N(C(=O)OCOP(=O)(O)O)c3cc(Cl)c4ncc(C#N)c(NCC(C)(C)C)c4c3)cccc2c1=O
result: 0.717 h
//
recordSmiles: C[C@H](N)C(=O)OCOC(=O)N(c1cc(Cl)c2ncc(C#N)c(NCC(C)(C)C)c2c1)[C@H](c1cn(C23CC(C2)C3)nn1)c1cccc2c(=O)n(C)ccc12
result: < 0.0167 h
//
recordSmiles: Cc1nc(F)ccc1[C@@H](c1cn(C23CC(C2)C3)nn1)N(C(=O)C(=O)O)c1cc(C#N)c2ncc(C#N)c(N[C@H](C)C(C)(C)C)c2c1
result: 13.2 h
//
recordSmiles: COC[C@@H](C)OC(=O)N(c1cc(C#N)c2ncc(C#N)c(N[C@H](C)C(C)(C)C)c2c1)[C@H](c1cn(C23CC(C2)C3)nn1)c1ccc(F)nc1C
result: 7.95 h
//
recordSmiles: Cc1nc(F)ccc1[C@@H](c1cn(C23CC(C2)C3)nn1)N(C(=O)OCOC(=O)C1CCN(C)CC1)c1cc(C#N)c2ncc(C#N)c(NCC(C)(C)C)c2c1
result: 2.75 h
//
recordSmiles: CC(=O)OCOC(=O)N(c1cc(C#N)c2ncc(C#N)c(NCC(C)(C)C)c2c1)[C@H](c1cn(C23CC(C2)C3)nn1)c1ccc(F)nc1C
result: 0.05 h
//
recordSmiles: COC[C@@H](C)OC(=O)N(c1cc(C#N)c2ncc(C#N)c(NCC(C)(C)C)c2c1)[C@H](c1cn(C23CC(C2)C3)nn1)c1ccc(F)nc1C
result: 13.2 h
